Can you tell me Human Primary Hepatocyte Editing % 100 for the items I'm about to list?
# Test system: PCSK9 gene
# test: PCSK9 gRNA/SpCas9 editing in primary human hepatocytes (Tables 2, 4)
# Format: cell-based
# test.context: 100 ng/RNA/mL; SpCas9 mRNA MS002 1:1 by weight
m = 2'-O-methyl; r = 2'-OH (RNA)
Give bare numbers, in %.

Previously resolved entries follow.
molecule	Human Primary Hepatocyte Editing % 100 (%)
GA175: PCSK9 gRNA; protospacer GAAGATGAGTGGCGACCTGC (SEQ ID NO: 169) (nucleic acid, sugars from the 5' end m3 r94 m3, linkages s3 o93 s3 (s phosphorothioate, o phosphodiester), T or U not given here) guide: GAAGAUGAGUGGCGACCUGCGUUUUAGAGCUAGAAAUAGCAAGUUAAAAUAAGGCUAGUCCGUUAUCAACUUGAAAAAGUGGCACCGAGUCGGUGCUUUU	1.55
GA225: PCSK9 gRNA; protospacer GGCATCGTCCCGGAAGTTGC (SEQ ID NO: 219) (nucleic acid, sugars from the 5' end m3 r94 m3, linkages s3 o93 s3 (s phosphorothioate, o phosphodiester), T or U not given here) guide: GGCAUCGUCCCGGAAGUUGCGUUUUAGAGCUAGAAAUAGCAAGUUAAAAUAAGGCUAGUCCGUUAUCAACUUGAAAAAGUGGCACCGAGUCGGUGCUUUU	0.89

For GA202: PCSK9 gRNA; protospacer AAGCGGGTCCCGTCCTCCTC (SEQ ID NO: 196) (nucleic acid, sugars from the 5' end m3 r94 m3, linkages s3 o93 s3 (s phosphorothioate, o phosphodiester), T or U not given here) guide: AAGCGGGUCCCGUCCUCCUCGUUUUAGAGCUAGAAAUAGCAAGUUAAAAUAAGGCUAGUCCGUUAUCAACUUGAAAAAGUGGCACCGAGUCGGUGCUUUU the molecule record lists Human Primary Hepatocyte Editing % 100 as 2.54

# credit: patent US20250152746A1
